- Test system: MS2 coat protein
- EXPERIMENTAL DETAILS: apparent KD of MS2 coat protein; designed switch direction (-1 OFF switch, 1 ON switch): -1; higher = weaker reporter binding
- EXPERIMENTAL SETUP: input ligand: none
The reader will find reported apparent KD of MS2 coat protein values listed item by item below.

- SEQUENCE CHAIN: "CAAGCUUUUCCAUUUCUAUACAUGAGGAUCACCCAUGUCCCGAGUUGGGUGAGCACUCUGGUCGUCGUUUCUACCAA [Envele] (Eterna round: R96, puzzle: Sensor v2, turn-off variant)"
  apparent KD of MS2 coat protein / µM: 0.278
- SEQUENCE CHAIN: "AAAGGCUCAGGAUAUGCCCAGGAAGACAUGAGGAUCACCCAUGUACUACGGGUGUCAUACGCAGAAGGGAGAUAGA [EX5 C.28] (Eterna round: R97, puzzle: Exclusion 5)"
  apparent KD of MS2 coat protein / µM: 0.0287
- SEQUENCE CHAIN: "ACCAUGGUUGAAGCUAACAUGAGGAUCACCCAUGUAAGCUGCUAGGAUAUGCAGAGGCCCAGAAAGCAGAAGGAGCAGUACUGC [Diatzagequ] (Eterna round: R96, puzzle: Exclusion NG 3)"
  apparent KD of MS2 coat protein / µM: 0.0149
- SEQUENCE CHAIN: "UAUUAGCAAGCAAGAUCCCACAUGAGGAUCACCCAUGUGCUCGUCUUAAGCCCAGAAUUACUGGGCGCUCGUCUUAU [Winner reversed engineered 22] (Eterna round: R97, puzzle: Sensor, turn-off variant 1)"
  apparent KD of MS2 coat protein / µM: 0.0284
- SEQUENCE CHAIN: "UUUUACAAGCUAAGAUCCUACAUGAGGAUCACCCAUGUGGUCCGGUGACGUGAGUCACCGGACUUAGCUCGUCUUGG [salish99_S_TOV1_R5_087] (Eterna round: R97, puzzle: Sensor, turn-off variant 1)"
  apparent KD of MS2 coat protein / µM: 0.0847
- SEQUENCE CHAIN: "UUAAAUCAUGUAGGAUAUGCAAGGCGAACCUAUGCAGAAGGACAUGAGGAUCACCCAUGUGCUGCGGUCUGCGUACAGAUCGCU [JL ENG1 1.02] (Eterna round: R96, puzzle: Exclusion NG 1)"
  apparent KD of MS2 coat protein / µM: 0.039
- SEQUENCE CHAIN: "UGUUGUCGCGCAGGAUAUUGUCAACAGGCAGUAGGAUAUCCGAAAGGAGAAGGACCGCCAACAGGCGAGAAGGGCGGGACAACU [pwkr exNG2 2xF7 2xFMN.9] (Eterna round: R96, puzzle: Exclusion NG 2)"
  apparent KD of MS2 coat protein / µM: 0.016
- SEQUENCE CHAIN: "GGUUGGCGAGGAUAUACAUGAGGAUCACCCAUGUGGUCCUAAGGCUGAUCAAGCCUAUGUAGAAGGCGCAAAUC [salish99_ex3_r4_010] (Eterna round: R97, puzzle: Exclusion 3)"
  apparent KD of MS2 coat protein / µM: 0.223
- SEQUENCE CHAIN: "AUUUAAUUUAGCGAGAUCACAUGAGGAUCACCCAUGUAUAUAUAGGAUAUCAGCUCGUGUAGAGCUGAGAAGGAUAUAUACCGC [ExNG3/7-A3] (Eterna round: R96, puzzle: Exclusion NG 3)"
  apparent KD of MS2 coat protein / µM: 0.0881
- SEQUENCE CHAIN: "CAGUCGAUAAGAUCAAUUAAUUAACAUGAGGAUCACCCAUGUGAGGAUAUCAGCUCGAUUAGAGCUGAGAAGGCACAACGACUG [ExNG3/17-A1] (Eterna round: R96, puzzle: Exclusion NG 3)"
  apparent KD of MS2 coat protein / µM: 0.0468
- SEQUENCE CHAIN: "GUCGUGUUAGGAUAUUGGCCUUUUAGAUGCACUAAGUGAGACGAGAAGGGACAUGAGGAUCACCCAUGUAAUAA [Eternabot (L1) Solution 69] (Eterna round: R97, puzzle: Exclusion 4)"
  apparent KD of MS2 coat protein / µM: 0.0364
- SEQUENCE CHAIN: "CGCGCGCGUGUAGGAUAUGUGUUUGGUUCGGGCGCAGAAGGACAUGAGGAUCACCCAUGUGUGUGUGUGCGCGCAGUGUGUGCG [-30, -27 kcal, 15% A] (Eterna round: R96, puzzle: Exclusion NG 1)"
  apparent KD of MS2 coat protein / µM: 0.0417
- SEQUENCE CHAIN: "GGUUACAAGCUAAGAUCCUACAUGAGGAUCACCCAUGUGGUCCGGUGACGUGAGUCACCGGACUUAGCUCGUCUUGU [salish99_S_TOV1_R5_002] (Eterna round: R97, puzzle: Sensor, turn-off variant 1)"
  apparent KD of MS2 coat protein / µM: 0.08
- SEQUENCE CHAIN: "UAAUAACAUGUAGGAUAUGCGUGGCGAAGCUAUGCAGAAGGACAUGAGGAUCACCCAUGUUAAAGCGUCUGAGAACAGAUGCGA [Mat - Exclusion NG 1 - Mod of JL - D98] (Eterna round: R96, puzzle: Exclusion NG 1)"
  apparent KD of MS2 coat protein / µM: 0.0305
- SEQUENCE CHAIN: "UUGAAAGGUGUAGGAUAUGUAUGAGGAUCACCCAUUAAUAAAUUUUAACCACGAGGAUCACCCGUGUAGAAGGACACCUUUCAA [pwkr exNG2 2xF5 1xFMN.18] (Eterna round: R96, puzzle: Exclusion NG 2)"
  apparent KD of MS2 coat protein / µM: 0.0318
- SEQUENCE CHAIN: "ACACGGAUAGGAUAUACUUGAGGAUCACCCAAGUGGAACCGCUUGUCCCGAUCCUAGAGUAGAAGGAUCAAAUA [Anusxebiat] (Eterna round: R97, puzzle: Exclusion 3)"
  apparent KD of MS2 coat protein / µM: 0.0443
- SEQUENCE CHAIN: "CUUGUUUAUGUAGGAUAUGCCUGGCGUGCCUUUGCAGAAGGACAUGAGGAUCACCCAUGUAUUGCGGUCUGCGUUCAGAUCGCC [salish99_ExNG1_r4_042] (Eterna round: R96, puzzle: Exclusion NG 1)"
  apparent KD of MS2 coat protein / µM: 0.022
- SEQUENCE CHAIN: "AGUAGGAGAGGAUAUACAUGAAGUCGAAAGACUUCGACUCAACAUGAGGAUCACCCAUGUAGAAGGCUCCUACA [Omei Ex2 BD A7] (Eterna round: R97, puzzle: Exclusion 2)"
  apparent KD of MS2 coat protein / µM: 0.0473
